Reference for the values: paper PMC7587356

Assign inhibition at 5 µM to each entry below.
TARGET_ENTITY: SARS-CoV-2 3CLpro (Severe acute respiratory syndrome coronavirus 2, UniProt P0DTD1)
ASSAY_OVERVIEW: biochemical
Type: biochemical
EXPERIMENTAL_PARAMETERS: 4 h, read-out: mean
Counter-ions that a name gives are not always drawn.
Please state the figure in %; there is no need to write the unit.

Query string: inhibition at 5 µM for O=C(Nc1ccc([N+](=O)[O-])cc1Cl)c1cc(Cl)ccc1O [Niclosamide] ?
Result string: 4.76

Query string: inhibition at 5 µM for Oc1ccc2c3c1O[C@H]1c4oc5ccccc5c4C[C@@]4(O)[C@@H](C2)N(CC2CC2)CC[C@]314 [Naltriben methanesulfonate] ?
Result string: 3.7

Query string: inhibition at 5 µM for CC[C@@H](CO)NC(=O)[C@@H]1C=C2c3cccc4[nH]cc(c34)C[C@H]2N(C)C1 [Methylergonovine maleate] ?
Result string: 0.949

Query string: inhibition at 5 µM for "CC(=O)N[C@@H](CS)C(=O)O" ?
Result string: 0.602

Query string: inhibition at 5 µM for Oc1ccc2c3c1O[C@H]1[C@@H](O)CC[C@@]4(O)[C@@H](C2)N(CC2CCC2)CC[C@]314 [Nalbuphine hydrochloride] ?
Result string: 4.19

Query string: inhibition at 5 µM for "O=c1cc(-c2ccc(O)cc2)oc2cc(O)cc(O)c12" ?
Result string: 0.131

Query string: inhibition at 5 µM for CC(C)NCC(O)COc1ccc(CCOCC2CC2)cc1 (centres unmarked) [Betaxolol hydrochloride] ?
Result string: 2.39

Query string: inhibition at 5 µM for CC[N+](CC)(CC)CC [Tetraethylammonium chloride] ?
Result string: 0.374
